Target: Sialic acid-binding Ig-like lectin 9 (Homo sapiens) (UniProt Q9Y336)
Sequence (Q9Y336 whole entry): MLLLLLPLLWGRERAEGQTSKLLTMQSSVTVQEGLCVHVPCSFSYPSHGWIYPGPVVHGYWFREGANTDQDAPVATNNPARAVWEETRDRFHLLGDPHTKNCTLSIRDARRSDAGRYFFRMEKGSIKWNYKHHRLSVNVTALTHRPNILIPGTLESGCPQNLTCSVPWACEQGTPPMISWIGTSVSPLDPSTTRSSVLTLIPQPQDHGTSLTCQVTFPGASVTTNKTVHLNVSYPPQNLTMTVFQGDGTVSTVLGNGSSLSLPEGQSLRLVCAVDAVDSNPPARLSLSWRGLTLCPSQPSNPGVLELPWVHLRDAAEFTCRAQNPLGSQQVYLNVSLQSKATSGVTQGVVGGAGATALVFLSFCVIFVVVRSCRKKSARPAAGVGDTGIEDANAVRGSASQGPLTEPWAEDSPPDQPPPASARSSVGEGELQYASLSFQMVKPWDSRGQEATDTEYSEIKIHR
Assay: Hs-Siglec9 ALPHAscreen SOP 20170721
Parameters: scale not given: direction of the effect not stated beside the values
Conditions: 10 µM
endpoint_name: Percent Effect (%)
Express your answer in %, writing the number without its unit.

Examples with answers:
Quickly give me recorded Percent Effect for COc1ccc(CN2CCC3(CC2)CCN(CC2CC2)C3=O)cc1
0.146

Name the recorded Percent Effect of the item Fc1cccc(-c2nc(CN3CCn4c(nnc4C4CC4)C3)co2)c1 in your answer.
-4.75

Let me know recorded Percent Effect for COC(=O)c1cccn1C1CCN(CC(=O)NC2CCCCC2)CC1 , thanks.
8.78

Answer with the recorded Percent Effect for the molecule listed here: COC(=O)NCc1cc2n(n1)CCCN(C(C)=O)C2
-0.0271

Further cases:
For the molecule CS(=O)(=O)NCC1CCCN(C(=O)COCC(F)(F)F)C1 (centres undefined) , give its measured Percent Effect value.
0.69

Fill in reported Percent Effect for this entry: CCc1nccn1-c1cncc(C2CCCN2Cc2cccnc2)n1 (centres undefined)
4.5

Provide only the value of recorded Percent Effect for Cc1cnn(CC2CN(CC(=O)N(C)Cc3cccs3)CCO2)c1 (centres undefined)
-0.649

Indicate the recorded Percent Effect value for this molecule: Cc1ncc(S(C)(=O)=O)c(C2CCCNC2)n1 (centres undefined)
5.3

Supply measured Percent Effect of CC(=O)N1C[C@@H](c2ccsc2)[C@@H]2CN(Cc3ccccc3)CC[C@@H]21 in your reply.
0.781

Find the measured Percent Effect of Cc1ccc(SCC2CNc3nc4ccccc4c(=O)n32)c(C)c1 (centres undefined) and report it.
23.4

Assign Percent Effect to the following record: Cc1cccc(CN2CCc3nnc(CO)n3CC2)n1
-0.362

Specify Percent Effect for Cc1cc(NC(=O)CCN(CC2CCOC2)C2CC2)no1 (centres undefined) and stop.
-0.377

Note Percent Effect for the molecule shown: COc1ccc(CC(=O)N2CCc3nnc(N(C)C)cc3C2)cc1F
-2.71

Identify the reported Percent Effect for the following entry. CS(=O)(=O)N1CCC(c2nnc3ccc(C(=O)N4CCCC4)cn23)C1 (centres undefined)
-5.27
